- Assay System: Kelch-like ECH-associated protein 1 (Homo sapiens)
- Test Summary: competitive SPR blockade of Keap1/Nrf2 binding – biophysical, dry powder, orthogonal assay for Keap1-Nrf2 interaction inhibitor project, confirmation (AID 651876)
- Run Conditions: Keap1 Kelch binding to Nrf2 peptide, inhibition, at 5 µM, stronger effect = higher value
Observable: inhibition (%)

| Molecule | Assay System | Unit Annotation | inhibition |
| --- | --- | --- | --- |
| O=C(O)[C@@H]1CCCN1C(=O)N1CCc2ccccc2[C@H]1CN1C(=O)c2ccccc2C1=O | Kelch-like ECH-associated protein 1 (Homo sapiens) | % | 1.7 |
| CC(C)OC(=O)C(C(=O)C(F)(F)F)c1cc(NS(=O)(=O)c2ccccc2)c2ccccc2c1O (stereo not given) | Kelch-like ECH-associated protein 1 (Homo sapiens) | % | 12.7 |
| O=C1c2ccccc2C(=O)N1C[C@@H]1c2ccccc2CCN1C(=O)C1CCCCC1 | Kelch-like ECH-associated protein 1 (Homo sapiens) | % | -0.3 |

(A) COc1ccc(CCN=C2C=C(NS(=O)(=O)c3c(C)cc(C)cc3C)c3ccccc3C2=O)cc1
(B) O=C(O)[C@H]1CCCC[C@H]1C(=O)NC(CN1C(=O)c2ccccc2C1=O)c1ccccc1 (stereo not given in full)
Ask | Given A and given B , which shows the smaller recorded inhibition? Refer to your chosen entry by its label in the reply.
Reply | A
(A: 0%, B: 0.3%)

----------
- Assay System: Kelch-like ECH-associated protein 1 (Homo sapiens) (UniProt Q14145)
- Sequence (Q14145 whole entry, looked up): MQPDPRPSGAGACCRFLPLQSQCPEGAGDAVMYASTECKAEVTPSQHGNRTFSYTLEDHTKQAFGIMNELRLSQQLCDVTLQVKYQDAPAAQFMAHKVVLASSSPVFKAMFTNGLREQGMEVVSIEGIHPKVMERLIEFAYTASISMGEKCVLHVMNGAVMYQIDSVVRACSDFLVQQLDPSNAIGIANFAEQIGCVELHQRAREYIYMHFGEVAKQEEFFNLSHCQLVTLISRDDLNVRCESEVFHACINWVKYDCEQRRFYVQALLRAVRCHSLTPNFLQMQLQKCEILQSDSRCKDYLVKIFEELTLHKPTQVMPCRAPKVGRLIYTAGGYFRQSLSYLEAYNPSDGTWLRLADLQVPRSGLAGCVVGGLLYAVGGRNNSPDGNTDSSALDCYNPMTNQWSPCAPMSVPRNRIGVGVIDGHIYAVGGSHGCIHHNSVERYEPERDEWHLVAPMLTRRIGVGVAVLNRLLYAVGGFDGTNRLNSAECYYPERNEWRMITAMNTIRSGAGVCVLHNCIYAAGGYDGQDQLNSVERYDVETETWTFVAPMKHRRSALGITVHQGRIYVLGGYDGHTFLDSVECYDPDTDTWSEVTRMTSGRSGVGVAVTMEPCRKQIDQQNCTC
- Test Summary: competitive SPR blockade of Keap1/Nrf2 binding – biophysical, dry powder, orthogonal assay for Keap1-Nrf2 interaction inhibitor project, confirmation (AID 651876)
- Run Conditions: Keap1 Kelch binding to Nrf2 peptide, at 50 µM, stronger effect = higher value
Observable: inhibition (%)

(a) O=C(O)C1CCCCC1C(=O)N1CCc2ccccc2[C@H]1C(=O)NC12CC3CC(CC(C3)C1)C2 (stereo not given in full)
(b) NC(=O)c1ccccc1C(=O)NC[C@@H]1c2ccccc2CCN1C(=O)[C@@H]1CCCC[C@@H]1C(=O)O
(c) O=C(O)C1CCCCC1C(=O)NCC1c2ccccc2CCN1C(=O)Cc1ccccc1 (stereo not given)
(d) O=C(O)c1ccccc1C(=O)NC[C@@H]1c2ccccc2CCN1C(=O)[C@@H]1CCCC[C@@H]1C(=O)O
(e) O=C(O)[C@@H]1CCCN1C(=O)N1CCc2ccccc2[C@H]1CN1C(=O)c2ccccc2C1=O
Ask | Going from lowest to highest recorded inhibition, rank the entries listed above. Please, when replying, give the labels in the order that was requested.
Reply | c, a, d, e, b

----------
- Assay System: UniProt:Q14145
- Test Summary: competitive SPR blockade of Keap1/Nrf2 binding – biophysical, dry powder, orthogonal assay for Keap1-Nrf2 interaction inhibitor project, confirmation (AID 651876)
- Run Conditions: Keap1 Kelch binding to Nrf2 peptide, inhibition, at 5 µM, stronger effect = higher value
Observable: inhibition (%)

| Molecule | Unit Annotation | Number |
| --- | --- | --- |
| O=C(NC[C@@H]1c2ccccc2CCN1C(=O)[C@@H]1CCCC[C@@H]1C(=O)O)c1ccccc1 | % | 1.5 |
| C=CC(=O)NC[C@@H]1c2ccccc2CCN1C(=O)[C@@H]1CCCC[C@@H]1C(=O)O | % | -5.2 |
| Cc1ccc(S(=O)(=O)NNc2nc(N3CC(O)CC3C(=O)O)nc3ccccc23)cc1 (centres undefined) | % | -1.1 |
| O=C(NCCO)c1ccccc1C(=O)NC[C@@H]1c2ccccc2CCN1C(=O)C1CCCCC1C(=O)O (some centres undefined) | % | 7.5 |
| O=C(O)/C=C\C(=O)N1CCc2ccccc2C1CN1C(=O)c2ccccc2C1=O (centres undefined) | % | 1.1 |
| Cc1cc(C)c(S(=O)(=O)Nc2ncnc3ccccc23)c(C)c1 | % | -0.6 |
| O=C1c2ccccc2C(=O)N1CC1=NCCc2ccccc21 | % | 1.1 |

(I) O=C(O)C1CCCCC1C(=O)N1CCc2ccccc2C1CN1C(=O)Cc2ccccc2C1=O (centres undefined)
(II) O=C(O)[C@H]1C2C=CC(C2)[C@H]1C(=O)N1CCc2ccccc2C1CN1C(=O)c2ccccc2C1=O (some centres undefined)
Ask | Pick the one with the larger inhibition: I vs II Refer to your chosen entry by its label in the reply.
Reply | I
(I: 36.6%, II: 4.9%)
